System: Klebsiella pneumoniae
Assay: Antibacterial activity against Klebsiella pneumoniae ATCC 10031 assessed as inhibition of bacterial growth by broth microdilution method
Assay type: functional
measured-metric: MIC

Query `Cc1[nH]c(C(=O)Nc2ccc(-c3noc(=O)[nH]3)cc2N2CCCC2)c(Cl)c1Cl` yields MIC of > 64 µg/mL

For reference, reported MIC for Cc1[nH]c(C(=O)Nc2ccc(-c3noc(=O)[nH]3)cc2N2CCCC(CN)C2)c(Cl)c1Cl.Cl (stereo not drawn) stands at 2 µg/mL

The reported value for `Cc1[nH]c(C(=O)Nc2ccc(-n3nn[nH]c3=O)cc2N2CC[C@H](N)C2)c(Cl)c1Cl.Cl` in terms of MIC is > 32 µg/mL

Documented MIC of `Cc1[nH]c(C(=O)Nc2ccc(-c3nnn[nH]3)cc2N2CCOCC2)c(Cl)c1Cl` : > 64 µg/mL

For record `Cc1[nH]c(C(=O)Nc2ccc(-c3noc(=O)[nH]3)cc2N2CCNCC2)c(Cl)c1Cl.Cl` the listed MIC is > 64 µg/mL

Given item `Cc1[nH]c(C(=O)Nc2ccc(-n3nn[nH]c3=O)cc2N2CCC(N)CC2)c(Cl)c1Cl.Cl` , the value recorded as its MIC is > 32 µg/mL

Short answer for Cc1[nH]c(C(=O)Nc2ccc(-c3nnn[nH]3)cc2N2CCCC(CN)C2)c(Cl)c1Cl.Cl (stereo not drawn) : MIC was 64 µg/mL

Input `Cc1[nH]c(C(=O)Nc2ccc(-n3nn[nH]c3=O)cc2N2Cc3ccccc3C2)c(Cl)c1Cl` . Output MIC: > 64 µg/mL
